Biological target: Serine/threonine-protein phosphatase 2A catalytic subunit alpha isoform (Bos taurus, UniProt P67774)
Sequence (P67774 whole entry, canonical isoform): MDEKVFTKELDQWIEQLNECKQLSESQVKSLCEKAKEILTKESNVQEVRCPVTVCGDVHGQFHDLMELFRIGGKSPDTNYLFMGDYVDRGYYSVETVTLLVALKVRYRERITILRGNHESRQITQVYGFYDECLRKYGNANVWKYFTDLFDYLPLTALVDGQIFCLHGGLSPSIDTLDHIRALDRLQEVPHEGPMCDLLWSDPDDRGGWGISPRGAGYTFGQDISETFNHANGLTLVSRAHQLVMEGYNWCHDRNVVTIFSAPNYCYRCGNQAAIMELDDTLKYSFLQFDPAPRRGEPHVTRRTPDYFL
Test: Inhibitory concentration against protein phosphatase 2A (PP2A) using pNPP assay
Design: species or system Oryctolagus cuniculus
*1 amine or outer side, *2 acyl side, *3 side chain or, on linkers, in order; H or OH if unused. Where a SMILES comes first, the peptide text is derived from it. Bridges are numbered along the chain shown (N, C = ends). [ ]: non-standard residue; d: D form. Adda = CO[C@@H](Cc1ccccc1)[C@@H](C)/C=C(C)/C=C/[C@H](N[*:1])[C@H](C)C(=O)[*:2]; dAsp(3S-Me) = C[C@H](C(=O)[*:3])[C@@H](N[*:1])C(=O)[*:2]; d(γGlu) = O=C(O)[C@@H](CCC(=O)[*:2])N[*:1]; NMeDha = C=C(NC)C(=O)O
MEASURED PARAMETER: IC50

# annotated cases, reported IC50 shown
# COMPOUND, IC50
data = [
    ("CO[C@@H](Cc1ccccc1)[C@@H](C)/C=C(C)/C=C/[C@H](NC(C)=O)[C@H](C)C(=O)N1CCC[C@@H]1C(=O)O", "> 25 µM"),
    ("CO[C@@H](Cc1ccccc1)[C@@H](C)/C=C(C)/C=C/[C@H](NC(C)=O)[C@H](C)C(=O)N1C[C@@H](C(=O)O)C[C@@H]1C(=O)O", "> 100 µM"),
    ("COC(=O)[C@H]1CCCN1C(=O)[C@@H](C)[C@H](/C=C/C(C)=C/[C@H](C)[C@H](Cc1ccccc1)OC)NC(C)=O", "> 100 µM"),
    ("CC(=O)N[C@@H](/C=C/C(C)=C/CCCc1ccccc1)[C@H](C)C(=O)N[C@H](C)C(=O)O", "> 100 µM"),
    ("CO[C@@H](Cc1ccccc1)[C@@H](C)/C=C(C)/C=C/[C@H](NC(C)=O)[C@H](C)C(=O)N1[C@@H](C(=O)O)CC[C@H]1C(=O)O", "10 µM"),
]

Below are some compounds; for each one, tell me its IC50.
1. C=C1C(=O)N[C@H](C)C(=O)N[C@@H](CC(C)C)C(=O)N[C@@H](C(=O)O)[C@H](C)C(=O)N[C@@H](C)C(=O)N[C@@H](/C=C/C(C)=C/[C@H](C)[C@H](Cc2ccccc2)OC)[C@H](C)C(=O)N[C@@H](C(=O)O)CCC(=O)N1C (A[Adda][d(γGlu)][NMeDha][dA]L[dAsp(3S-Me)]-OH; lactam N-7)
2. CO[C@@H](Cc1ccccc1)[C@@H](C)/C=C(C)/C=C/[C@H](NC(C)=O)[C@H](C)C(=O)N1CCC[C@H]1C(=O)O
3. CC(=O)N[C@@H](/C=C/C(C)=C/c1ccc(-c2ccccc2)cc1)[C@H](C)C(=O)N[C@H](C)C(=O)O
4. CC(=O)N[C@@H](/C=C/C(C)=C/c1ccccc1Cc1ccccc1)[C@H](C)C(=O)N[C@H](C)C(=O)O
5. CO[C@@H](Cc1ccccc1)[C@@H](C)/C=C(C)/C=C/[C@H](NC(C)=O)[C@H](C)C(=O)N1C[C@H](O[Si](C(C)C)(C(C)C)C(C)C)C[C@@H]1C(=O)O
6. COC(=O)[C@@H]1CCCN1C(=O)[C@@H](C)[C@H](/C=C/C(C)=C/[C@H](C)[C@H](Cc1ccccc1)OC)NC(C)=O
7. CO[C@@H](Cc1ccccc1)[C@@H](C)/C=C(C)/C=C/[C@H](NC(C)=O)[C@H](C)C(=O)N[C@H](C)C(=O)O

Reply text:
["0.003 µM", "> 100 µM", "> 100 µM", "> 100 µM", "> 63 µM", "> 100 µM", "7 µM"]

Inquiry: Return reported IC50; argument: CO[C@@H](Cc1ccccc1)[C@@H](C)/C=C(C)/C=C/[C@H](NC(C)=O)[C@H](C)C(=O)N(CC(=O)O)CC(=O)O
Reply text: > 100 µM
